Tested on: Candida albicans A-26
PROTOCOL_DESCRIPTION: Therapeutic activity against Candida albicans A-26 infection in X-irradiated mice, lowest active dose
Format: in vivo
TEST_SETTINGS: A26, light or radiation study, sc, X-irradiated mice, subcutaneous at 0, 4 and 24 hours post infection, survival, read-out: Lowest Active Dose
Protocol: The results of in vivo tests to evaluate the effectiveness of the compounds of Examples 3 and 4 against an infection caused by Candida albicans A-26 in mice are given in Table 13, where activity is measured by the ED50 value (the dose in mg/kg. required to cure 50% of the test animals). In a separate test, the results of which are also summarized in Table 13, activity is indicated by the lowest dose at which a significant anti-fungal effect is observed. […]
Starred links: 1 amine or outer side, 2 acyl side, 3 side chain; linkers in the order of their positions; H or OH if unused. Positions of bridges follow the written chain, without caps; N, C: chain ends. Non-standard residues stand in square brackets, D forms with d. Residues, ends and D or L forms follow the SMILES beside them. *: point of attachment. Orn(4R-OH,5R-OH) = O=C([C@H](C[C@@H](O)[C@@H](O)N[*:3])N[*:1])[*:2]; hTyr(3S-OH,4S-OH) = N[C@H](C(=O)O)[C@H](O)[C@@H](O)c1ccc(O)cc1; Pro(3S-OH,4S-Me) = C[C@H]1CN[C@H](C(=O)O)[C@H]1O; Benzoyl(4-octyl) = CCCCCCCCc1ccc(C(=O)*)cc1; X24 = CCCCCCCCCCCCCCOc1cccc(C(=O)*)c1; X27 = CCCCCCCCCCCCOc1cccc(CC(=O)*)c1; X10 = CCCCCCCCCCCCOc1cccc(C(=O)*)c1; X1 = CCCCCCCCCCCCSc1ccc(C(=O)*)cc1; Hyp = O=C(O)[C@@H]1C[C@@H](O)CN1
PROPERTY_MEASURED: minimal effective dose (mg/kg)

[[record]]
compound = "CCCCCCCCCCCCCCOc1cccc(C(=O)N[C@H]2C[C@@H](O)[C@@H](O)NC(=O)[C@@H]3[C@@H](O)[C@@H](C)CN3C(=O)[C@H]([C@@H](C)O)NC(=O)[C@H]([C@H](O)[C@@H](O)c3ccc(O)cc3)NC(=O)[C@@H]3C[C@@H](O)CN3C(=O)[C@H]([C@@H](C)O)NC2=O)c1 (X24-[Orn(4R-OH,5R-OH)]T[Hyp][hTyr(3S-OH,4S-OH)]T[Pro(3S-OH,4S-Me)]; lactam 1-C)"
property_measured = "minimal effective dose"
bound_operator = ">"
measured = 40

[[record]]
compound = "CCCCCCCCCCCCOc1cccc(C(=O)N[C@H]2C[C@@H](O)[C@@H](O)NC(=O)[C@@H]3[C@@H](O)[C@@H](C)CN3C(=O)[C@H]([C@@H](C)O)NC(=O)[C@H]([C@H](O)[C@@H](O)c3ccc(O)cc3)NC(=O)[C@@H]3C[C@@H](O)CN3C(=O)[C@H]([C@@H](C)O)NC2=O)c1 [drawing 165] (X10-[Orn(4R-OH,5R-OH)]T[Hyp][hTyr(3S-OH,4S-OH)]T[Pro(3S-OH,4S-Me)]; lactam 1-C)"
property_measured = "minimal effective dose"
bound_operator = ">"
measured = 40

[[record]]
compound = "CCCCCCCCCCCCSc1ccc(C(=O)N[C@H]2C[C@@H](O)[C@@H](O)NC(=O)[C@@H]3[C@@H](O)[C@@H](C)CN3C(=O)[C@H]([C@@H](C)O)NC(=O)[C@H]([C@H](O)[C@@H](O)c3ccc(O)cc3)NC(=O)[C@@H]3C[C@@H](O)CN3C(=O)[C@H]([C@@H](C)O)NC2=O)cc1 [drawing 157] (X1-[Orn(4R-OH,5R-OH)]T[Hyp][hTyr(3S-OH,4S-OH)]T[Pro(3S-OH,4S-Me)]; lactam 1-C)"
property_measured = "minimal effective dose"
bound_operator = "<"
measured = 1.25

[[record]]
compound = "CCCCCCCCc1ccc(C(=O)N[C@H]2C[C@@H](O)[C@@H](O)NC(=O)[C@@H]3[C@@H](O)[C@@H](C)CN3C(=O)[C@H]([C@@H](C)O)NC(=O)[C@H]([C@H](O)[C@@H](O)c3ccc(O)cc3)NC(=O)[C@@H]3C[C@@H](O)CN3C(=O)[C@H]([C@@H](C)O)NC2=O)cc1 [drawing 169] ({Benzoyl(4-octyl)}-[Orn(4R-OH,5R-OH)]T[Hyp][hTyr(3S-OH,4S-OH)]T[Pro(3S-OH,4S-Me)]; lactam 1-C)"
property_measured = "minimal effective dose"
bound_operator = "="
measured = 40

[[record]]
compound = "CCCCCCCCCCCCOc1cccc(CC(=O)N[C@H]2C[C@@H](O)[C@@H](O)NC(=O)[C@@H]3[C@@H](O)[C@@H](C)CN3C(=O)[C@H]([C@@H](C)O)NC(=O)[C@H]([C@H](O)[C@@H](O)c3ccc(O)cc3)NC(=O)[C@@H]3C[C@@H](O)CN3C(=O)[C@H]([C@@H](C)O)NC2=O)c1 (X27-[Orn(4R-OH,5R-OH)]T[Hyp][hTyr(3S-OH,4S-OH)]T[Pro(3S-OH,4S-Me)]; lactam 1-C)"
property_measured = "minimal effective dose"
bound_operator = "="
measured = 20


* * *

Test system: Trychophyton mentagrophyes #6
PROTOCOL_DESCRIPTION: Agar plate disc diffusion test, MIC per disc
Assay type: cell-based, Trichophyton mentagrophytes
TEST_SETTINGS: 0.1M sodium borate, pH 7.5, 24 hours, 30° C., * measurable zones with regrowth of organism around disc
Starred links: 1 amine or outer side, 2 acyl side, 3 side chain; linkers in the order of their positions; H or OH if unused. Positions of bridges follow the written chain, without caps; N, C: chain ends. Non-standard residues stand in square brackets, D forms with d. Residues, ends and D or L forms follow the SMILES beside them. *: point of attachment. Orn(4R-OH,5R-OH) = O=C([C@H](C[C@@H](O)[C@@H](O)N[*:3])N[*:1])[*:2]; hTyr(3S-OH,4S-OH) = N[C@H](C(=O)O)[C@H](O)[C@@H](O)c1ccc(O)cc1; Pro(3S-OH,4S-Me) = C[C@H]1CN[C@H](C(=O)O)[C@H]1O; X2 = CCCCCCCCCCCCCCS(=O)(=O)c1ccc(C(=O)*)cc1; X16 = CCCCCCCCOc1ccc(C=CC(=O)*)cc1; Hyp = O=C(O)[C@@H]1C[C@@H](O)CN1; X13 = CCCCCCCCOc1cccc(C(=O)*)c1; X7 = CCCCCCCCSc1ccc(C(=O)*)cc1; X14 = CCCCCCOc1ccc(C(=O)*)cc1
We begin with a simple list: items and their reported MIC.
PROPERTY_MEASURED: MIC (μg/disc)

[[record]]
compound = "CCCCCCOc1ccc(C(=O)N[C@H]2C[C@@H](O)[C@@H](O)NC(=O)[C@@H]3[C@@H](O)[C@@H](C)CN3C(=O)[C@H]([C@@H](C)O)NC(=O)[C@H]([C@H](O)[C@@H](O)c3ccc(O)cc3)NC(=O)[C@@H]3C[C@@H](O)CN3C(=O)[C@H]([C@@H](C)O)NC2=O)cc1 [drawing 131] (X14-[Orn(4R-OH,5R-OH)]T[Hyp][hTyr(3S-OH,4S-OH)]T[Pro(3S-OH,4S-Me)]; lactam 1-C)"
property_measured = "MIC"
readout_units = "μg/disc"
bound_operator = "="
measured = 0.312

[[record]]
compound = "CCCCCCCCOc1ccc(C=CC(=O)N[C@H]2C[C@@H](O)[C@@H](O)NC(=O)[C@@H]3[C@@H](O)[C@@H](C)CN3C(=O)[C@H]([C@@H](C)O)NC(=O)[C@H]([C@H](O)[C@@H](O)c3ccc(O)cc3)NC(=O)[C@@H]3C[C@@H](O)CN3C(=O)[C@H]([C@@H](C)O)NC2=O)cc1 [drawing 140] (X16-[Orn(4R-OH,5R-OH)]T[Hyp][hTyr(3S-OH,4S-OH)]T[Pro(3S-OH,4S-Me)]; lactam 1-C)"
property_measured = "MIC"
readout_units = "μg/disc"
bound_operator = "="
measured = 0.156

[[record]]
compound = "CCCCCCCCSc1ccc(C(=O)N[C@H]2C[C@@H](O)[C@@H](O)NC(=O)[C@@H]3[C@@H](O)[C@@H](C)CN3C(=O)[C@H]([C@@H](C)O)NC(=O)[C@H]([C@H](O)[C@@H](O)c3ccc(O)cc3)NC(=O)[C@@H]3C[C@@H](O)CN3C(=O)[C@H]([C@@H](C)O)NC2=O)cc1 [drawing 119] (X7-[Orn(4R-OH,5R-OH)]T[Hyp][hTyr(3S-OH,4S-OH)]T[Pro(3S-OH,4S-Me)]; lactam 1-C)"
property_measured = "MIC"
readout_units = "μg/disc"
bound_operator = "<"
measured = 0.039

[[record]]
compound = "CCCCCCCCCCCCCCS(=O)(=O)c1ccc(C(=O)N[C@H]2C[C@@H](O)[C@@H](O)NC(=O)[C@@H]3[C@@H](O)[C@@H](C)CN3C(=O)[C@H]([C@@H](C)O)NC(=O)[C@H]([C@H](O)[C@@H](O)c3ccc(O)cc3)NC(=O)[C@@H]3C[C@@H](O)CN3C(=O)[C@H]([C@@H](C)O)NC2=O)cc1 [drawing 126] (X2-[Orn(4R-OH,5R-OH)]T[Hyp][hTyr(3S-OH,4S-OH)]T[Pro(3S-OH,4S-Me)]; lactam 1-C)"
property_measured = "MIC"
readout_units = "μg/disc"
bound_operator = "="
measured = 0.039

[[record]]
compound = "CCCCCCCCOc1cccc(C(=O)N[C@H]2C[C@@H](O)[C@@H](O)NC(=O)[C@@H]3[C@@H](O)[C@@H](C)CN3C(=O)[C@H]([C@@H](C)O)NC(=O)[C@H]([C@H](O)[C@@H](O)c3ccc(O)cc3)NC(=O)[C@@H]3C[C@@H](O)CN3C(=O)[C@H]([C@@H](C)O)NC2=O)c1 [drawing 127] (X13-[Orn(4R-OH,5R-OH)]T[Hyp][hTyr(3S-OH,4S-OH)]T[Pro(3S-OH,4S-Me)]; lactam 1-C)"
property_measured = "MIC"
readout_units = "μg/disc"
bound_operator = ">"
measured = 40

